Recorded IC50 by entry
Tested on: Plasmodium falciparum
Test: Antiplasmodial activity against Plasmodium falciparum 3D7 infected in human red blood cells assessed as parasite growth inhibition incubated for 72 hrs by SYBR Green I staining based analysis
Format: functional, organism-based, Red blood cell
Conditions: 3D7, Erythrocyte
Report the figure in nM without appending any unit label.

Field: example entries. Status: answers known.
Entry under test: CCCOCc1cn(-c2cc(Cl)ccc2Cl)nn1 . Its IC50 was 2800

Entry under test: COc1ccc(-n2cc(/C=N/Nc3ccc(Cl)cc3)nn2)cc1 . Its IC50 was 2800

Entry under test: COc1ccc(-n2cc(COC(=O)c3ccccc3)nn2)cc1 . Its IC50 was 2800

Entry under test: CCCCOCc1cn(-c2cc(Cl)cc(Cl)c2)nn1 . Its IC50 was 2800

Entry under test: Clc1ccc(N/N=C/c2cnn(-c3ccccc3)n2)cc1 . Its IC50 was 2800

Entry under test: Clc1ccc(Cl)c(-n2cc(/C=N/Nc3c(Cl)cccc3Cl)nn2)c1 . Its IC50 was 2800

Entry under test: CCOC(=O)c1cnn(-c2ccccc2)c1 . Its IC50 was 2800

Entry under test: COc1ccc(-n2cc(/C=N/Nc3ccccc3)nn2)cc1 . Its IC50 was 4440

Further cases:
Entry under test: O=C(OCc1cn(-c2ccccc2)nn1)c1ccccc1 . Its IC50 was 2800

###

Tested on: Plasmodium falciparum
Test: Antiplasmodial activity against Plasmodium falciparum 3D7 infected in human red blood cells assessed as parasite growth inhibition incubated for 72 hrs by SYBR Green I staining based analysis
Assay type: functional, organism-based, Red blood cell
Conditions: 3D7, Erythrocyte
Recorded IC50 by entry
Please don't drop the unit; write it after the number.

Entry under test: Fc1ccc(N/N=C/c2cnn(-c3ccccc3)n2)cc1 . Its IC50 was 2800 nM

Entry under test: Clc1ccc(-n2cc(/C=N/Nc3c(Cl)cccc3Cl)nn2)cc1 . Its IC50 was 2800 nM

Entry under test: O=C(N/N=C/c1cn(-c2cc(Cl)cc(Cl)c2)nn1)c1ccncc1 . Its IC50 was 6960 nM

Further cases:
Entry under test: CCCOCc1cn(-c2cc(Cl)cc(Cl)c2)nn1 . Its IC50 was 2800 nM

Entry under test: O=C(N/N=C/c1cn(-c2ccccc2)nn1)c1ccncc1 . Its IC50 was 2800 nM

Entry under test: COc1ccc(-n2cc(/C=N/NC(=O)c3ccncc3)nn2)cc1 . Its IC50 was 2800 nM

Entry under test: CCCCCCCCCC(=O)OCc1cn(-c2ccc(OC)cc2)nn1 . Its IC50 was 2800 nM

Entry under test: O=C(OCc1cnn(-c2ccccc2)n1)c1ccccc1 . Its IC50 was 2800 nM

Entry under test: CCOCc1cn(-c2ccc(Cl)cc2)nn1 . Its IC50 was 2800 nM

Entry under test: Fc1ccc(N/N=C/c2cn(-c3ccc(Cl)cc3)nn2)cc1 . Its IC50 was 8450 nM
